- methodNotes: WST-1 cell proliferation (cytotoxicity) assay, KB-31
- Format: cell-based
- experimentalParameters: human; KB-31 epidermoid carcinoma, WST-1, incubated for 5 days
propertyName: IC50 at 5 days

Prompt: Supply IC50 at 5 days value. Item: COC1=C(Br)[C@H](O)[C@@]2(C=C1Br)CC(C(=O)NCCCOc1c(Br)cc(CCNC(=O)C3=NO[C@]4(C=C(Br)C(OC)=C(Br)[C@@H]4O)C3)cc1Br)=NO2
Response: 88.2 µM

====

- System: MCF-7 breast cancer cell line
- methodNotes: WST-1 cell proliferation (cytotoxicity) assay, MCF-7
- Type: cell-based
- experimentalParameters: WST-1, incubated for 5 days
propertyName: IC50 (µM)
One number for each entry, in µM.

Prompt: Supply reported IC50 belonging to this molecule: COC1=C(Br)[C@H](O)[C@@]2(C=C1Br)CC(C(=O)NC[C@@H](O)c1cc(Br)c(OCCCNC(C)=O)c(Br)c1)=NO2
Response: 77.5
